Entries annotated with measured pIC50
Target: human Werner helicase (WRN-BV08, Uniprot Q14191, amino acids 517-1235 with L1074F point mutation) (Homo sapiens, UniProt Q14191, L1074F)
Construct: Uniprot Q14191, amino acids 517-1235 with L1074F point mutation; TEV-cleavable 8×His (C, cleaved yes); made in house; host or cells: Sf9 insect cells (baculovirus)
Sequence (Q14191 with tags, fused parts or gaps L1074F limits assumed): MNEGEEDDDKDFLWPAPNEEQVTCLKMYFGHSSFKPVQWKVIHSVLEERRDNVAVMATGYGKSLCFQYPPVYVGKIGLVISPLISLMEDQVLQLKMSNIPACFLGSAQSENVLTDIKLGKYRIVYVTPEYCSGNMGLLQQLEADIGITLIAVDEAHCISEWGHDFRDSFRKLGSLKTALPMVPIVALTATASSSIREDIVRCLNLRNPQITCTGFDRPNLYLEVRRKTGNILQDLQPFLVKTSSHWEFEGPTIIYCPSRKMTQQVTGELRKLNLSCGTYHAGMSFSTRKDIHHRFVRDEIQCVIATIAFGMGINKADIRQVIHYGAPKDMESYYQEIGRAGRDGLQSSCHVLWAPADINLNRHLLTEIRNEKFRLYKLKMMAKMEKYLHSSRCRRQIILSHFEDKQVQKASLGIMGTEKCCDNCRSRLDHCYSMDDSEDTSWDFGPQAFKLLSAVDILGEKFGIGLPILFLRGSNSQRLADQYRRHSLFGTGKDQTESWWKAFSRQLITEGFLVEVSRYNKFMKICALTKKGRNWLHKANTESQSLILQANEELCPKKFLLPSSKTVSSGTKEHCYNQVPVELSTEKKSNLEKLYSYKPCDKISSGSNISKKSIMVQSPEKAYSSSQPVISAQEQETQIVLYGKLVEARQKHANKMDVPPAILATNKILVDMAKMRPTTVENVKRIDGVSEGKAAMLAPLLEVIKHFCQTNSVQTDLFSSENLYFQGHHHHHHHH
Assay: WRN (BV08) ADP-Glo Assay
Format: biochemical
Conditions: 0.15 nM WRN, 5 μM ATP, 0.1 nM DNA duplex, 15 min preincubation, 60 min at 25° C., pH 7.5, 1% DMSO; read-out: ADP-Glo_hWRN_IC50
Description: Example 2: WRN (BV08) ADP-Glo Assay Protocol Bovine skin gelatin (BSG), dimethyl sulfoxide (DMSO), Pluronic F-127 and Tris(2-carboxyethyl)phosphine hydrochloride solution (TCEP) were purchased from Sigma-Aldrich at the highest level of purity possible. […] The reaction was stopped by the addition of the ADP-Glo Kit components (Promega) as directed and the relative luminescence units (RLU) were read on an Envision 2104 (Perkin Elmer). […]
pIC50: −log10 of the molar value.

molecule="O=C(Cc1ccc(-n2cccc2)cc1)N(Cc1cccc(Cl)c1)C1C=CS(=O)(=O)C1 (centres unmarked)" reportedmetric=pIC50 result="5.30 to 6.30"

We now examine a further molecule.
Sample O=C(Cc1ccc(-n2cccc2)cc1)N(Cc1ccccc1Cl)C1C=CS(=O)(=O)C1 (centres unmarked) — what was its pIC50?
< 4.30

====

Target: human Werner helicase (WRN-BV08, Uniprot Q14191, amino acids 517-1235 with L1074F point mutation) (Homo sapiens, UniProt Q14191, L1074F)
Construct: Uniprot Q14191, amino acids 517-1235 with L1074F point mutation; TEV-cleavable 8×His (C, cleaved yes); made in house; host or cells: Sf9 insect cells (baculovirus)
Assay: WRN (BV08) ADP-Glo Assay
Assay type: biochemical
Settings: 0.15 nM WRN, 5 μM ATP, 0.1 nM DNA duplex, 15 min preincubation, 60 min at 25° C., pH 7.5, 1% DMSO; read-out: ADP-Glo_hWRN_IC50
reportedMetric: IC50

compound="O=C(Cc1ccc(C(F)(F)F)cc1F)N(Cc1ccncc1)C1C=CS(=O)(=O)C1 (centres unmarked)" reportedmetric=IC50 result="5 to 10 µM"
compound="O=C(Cc1ccc(S(F)(F)(F)(F)F)cc1)N(Cc1nnc(C2CC2)s1)C1C=CS(=O)(=O)C1 (centres unmarked)" reportedmetric=IC50 result="0.5 to 5 µM"
compound="CC(C)(O)c1cc(CN(C(=O)Cn2cc(-c3ccccc3)cn2)C2C=CS(=O)(=O)C2)ccn1 (centres unmarked)" reportedmetric=IC50 result="< 0.5 µM"
compound="COCc1cc(CN(C(=O)Cc2ccc(-n3cccc3C)cc2F)C2C=CS(=O)(=O)C2)ccn1 (centres unmarked)" reportedmetric=IC50 result="0.5 to 5 µM"
compound="Cc1cc(-c2ccc(F)cc2)ccc1CC(=O)N(Cc1ccncc1)C1C=CS(=O)(=O)C1 (centres unmarked)" reportedmetric=IC50 result="5 to 10 µM"

Sample O=C(Cc1cnn(-c2ccccc2)c1)N(Cc1ccncc1)C1C=CS(=O)(=O)C1 (centres unmarked) — what was its IC50?
> 50 µM

Sample COc1cc(CN(C(=O)Cc2ccc(C(F)(F)F)cc2)C2C=CS(=O)(=O)C2)ccn1 (single isomer, unassigned) [I-382] — what was its IC50?
> 50 µM

Sample O=C(CN1CCC(C(F)(F)F)CC1)N(Cc1ccncc1)C1C=CS(=O)(=O)C1 (centres unmarked) — what was its IC50?
> 50 µM

====

Entries annotated with measured IC50
Molecular target: human Werner helicase (WRN-BV08, Uniprot Q14191, amino acids 517-1235 with L1074F point mutation) (Homo sapiens, UniProt Q14191, L1074F)
Construct: Uniprot Q14191, amino acids 517-1235 with L1074F point mutation; TEV-cleavable 8×His (C, cleaved yes); made in house; host or cells: Sf9 insect cells (baculovirus)
Experiment: WRN (BV08) ADP-Glo Assay
Format: biochemical
Details: 0.15 nM WRN, 5 μM ATP, 0.1 nM DNA duplex, 15 min preincubation, 60 min at 25° C., pH 7.5, 1% DMSO; read-out: ADP-Glo_hWRN_IC50

# example entries with known answers
compound="O=C(CCc1[nH]nc2ccccc12)N(Cc1ccncc1)C1C=CS(=O)(=O)C1 (stereo not drawn)" result="> 50 µM"
compound="O=C(Cc1ccc(-n2cccc2)cc1)N(Cc1nc2c(s1)CCC2)C1C=CS(=O)(=O)C1 (stereo not drawn)" result="0.5 to 5 µM"
compound="O=C(C1CC(C(F)(F)F)CO1)N(Cc1ccncc1)C1C=CS(=O)(=O)C1 (stereo not drawn)" result="> 50 µM"
compound="O=C(Cc1ccc2c[nH]nc2c1)N(Cc1ccncc1)C1C=CS(=O)(=O)C1 (stereo not drawn)" result="> 50 µM"
compound="CC(C)(O)c1cc(CN(C(=O)Cn2ncc3cc(S(F)(F)(F)(F)F)ccc32)C2C=CS(=O)(=O)C2)ccn1 (single isomer, unassigned)" result="0.5 to 5 µM"

Sample COc1cc(CN(C(=O)Cc2ccc(-n3cccc3)cc2)C2C=CS(=O)(=O)C2)ccn1 (stereo not drawn) — what was its IC50?
0.5 to 5 µM

Sample O=C([C@@H]1[C@@H]2CC[C@@]1(c1cccc(Br)c1)C2)N(Cc1ccncc1)C1C=CS(=O)(=O)C1 (mixture of isomers) — what was its IC50?
> 50 µM

Sample O=C(Cc1ccc(S(F)(F)(F)(F)F)cc1)N(Cc1ccc(=O)[nH]n1)C1C=CS(=O)(=O)C1 (stereo not drawn) — what was its IC50?
0.5 to 5 µM

Sample COc1cc(CN(C(=O)C(c2ccc(-c3ccc(F)c(F)c3)cc2F)n2nccc2C)[C@@H]2C=CS(=O)(=O)C2)ccn1 (single isomer, unassigned) [I-738] — what was its IC50?
> 50 µM

Sample COc1cc(CN(C(=O)C(c2ccc(-c3ccc(F)c(F)c3)cc2F)n2cc(C#N)cn2)[C@@H]2C=CS(=O)(=O)C2)ccn1 (single isomer, unassigned) [I-703] — what was its IC50?
< 0.5 µM

Sample N#CCCN(C(=O)Cc1ccc(-c2ccc(F)cc2)cc1)C1C=CS(=O)(=O)C1 (stereo not drawn) — what was its IC50?
> 50 µM

====

Target: human Werner helicase (WRN-BV08, Uniprot Q14191, amino acids 517-1235 with L1074F point mutation) (Homo sapiens, UniProt Q14191, L1074F)
Construct: Uniprot Q14191, amino acids 517-1235 with L1074F point mutation; TEV-cleavable 8×His (C, cleaved yes); made in house; host or cells: Sf9 insect cells (baculovirus)
Test: WRN (BV08) ADP-Glo Assay
Assay type: biochemical
Conditions: 0.15 nM WRN, 5 μM ATP, 0.1 nM DNA duplex, 15 min preincubation, 60 min at 25° C., pH 7.5, 1% DMSO; read-out: ADP-Glo_hWRN_IC50
reportedMetric: IC50

# example entries with known answers
compound="COc1cc(CN(C(=O)C(OCc2cnn(C)c2)c2ccc(-c3ccc(F)c(F)c3)cc2F)[C@@H]2C=CS(=O)(=O)C2)ccn1 (single isomer, unassigned) [I-742]" reportedmetric=IC50 result="0.5 to 5 µM"
compound="O=C(Cc1ccc(-n2cccc2)cc1)N(Cc1ccnc2ccccc12)C1C=CS(=O)(=O)C1 (centres unmarked)" reportedmetric=IC50 result="0.5 to 5 µM"
compound="O=C(Cc1ccc(-n2cccc2)cc1)N(Cc1nc(C2CC2)cs1)C1C=CS(=O)(=O)C1 (centres unmarked)" reportedmetric=IC50 result="0.5 to 5 µM"
compound="CC(C)(O)c1cc(CN(C(=O)Cn2ccc(-c3ccc(F)cc3)cc2=O)C2C=CS(=O)(=O)C2)ccn1 (single isomer, unassigned)" reportedmetric=IC50 result="< 0.5 µM"

Sample Cc1cccn1-c1ccc(CC(=O)N(Cc2ccnc3c2CCC3O)C2C=CS(=O)(=O)C2)c(F)c1 (centres unmarked) — what was its IC50?
0.5 to 5 µM

Sample Cc1c(CC(=O)N(Cc2ccncc2)C2C=CS(=O)(=O)C2)c(=O)[nH]c2ccccc12 (centres unmarked) — what was its IC50?
> 50 µM

Sample O=C(Cc1ccc(S(F)(F)(F)(F)F)cc1)N(Cc1nc(C2CC2)cs1)C1C=CS(=O)(=O)C1 (centres unmarked) [I-41] — what was its IC50?
< 0.5 µM

Sample O=C(Cc1ccc(S(F)(F)(F)(F)F)cc1)N(Cc1ccnnc1)C1C=CS(=O)(=O)C1 (centres unmarked) — what was its IC50?
5 to 10 µM

====

Entries annotated with measured pIC50
Molecular target: human Werner helicase (WRN-BV08, Uniprot Q14191, amino acids 517-1235 with L1074F point mutation) (Homo sapiens, UniProt Q14191, L1074F)
Construct: Uniprot Q14191, amino acids 517-1235 with L1074F point mutation; TEV-cleavable 8×His (C, cleaved yes); made in house; host or cells: Sf9 insect cells (baculovirus)
Test: WRN (BV08) ADP-Glo Assay
Type: biochemical
Conditions: 0.15 nM WRN, 5 μM ATP, 0.1 nM DNA duplex, 15 min preincubation, 60 min at 25° C., pH 7.5, 1% DMSO; read-out: ADP-Glo_hWRN_IC50
pIC50: −log10 of the molar value.

compound="O=C(Cc1ccc(-c2cccs2)cc1)N(Cc1ccncc1)C1C=CS(=O)(=O)C1 (stereo not shown) [I-338]" result="4.30 to 5.00"
compound="CC(C)(O)c1cc(CN(C(=O)C(c2ccc(-c3ccc(F)c(F)c3)cc2F)n2cccn2)[C@@H]2C=CS(=O)(=O)C2)ccn1 (single isomer, unassigned) [I-682]" result="> 6.30"
compound="CN(C)C(=O)C(C(=O)N(Cc1ccnc(C(C)(C)O)c1)C1C=CS(=O)(=O)C1)c1ccc(-c2ccc(F)cc2)cc1F (single isomer, unassigned) [I-340]" result="4.30 to 5.00"
compound="COc1cc(CN(C(=O)Cn2cc(-c3ccccc3)cn2)C2C=CS(=O)(=O)C2)ccn1 (stereo not shown) [I-94]" result="5.30 to 6.30"
compound="O=C(Cc1ccc(-n2cccc2)cc1)N(Cc1ccc2ncccc2c1)C1C=CS(=O)(=O)C1 (stereo not shown) [I-222]" result="5.00 to 5.30"
compound="COC(C(=O)N(Cc1nc(C(C)(C)O)cs1)C1C=CS(=O)(=O)C1)c1ccc(-c2ccc(F)c(F)c2)cc1F (single isomer, unassigned) [I-746]" result="> 6.30"

We now examine a further compound.
Sample O=C(c1ccc(-n2cccc2)cc1)N(Cc1ccccc1)C1C=CS(=O)(=O)C1 (stereo not shown) [I-486] — what was its pIC50?
< 4.30
